# Test system: T1, human TPBG-hFc protein (human, UniProt Q13641 32-355)
# T1 construct: range 32-355; Expressed in HEK293 cells, purified on protein A; also called immunogen A; hFc tagged TPBG protein; not shown: human IgG Fc fragment of the pCpC vector
# T1 sequence (looked up): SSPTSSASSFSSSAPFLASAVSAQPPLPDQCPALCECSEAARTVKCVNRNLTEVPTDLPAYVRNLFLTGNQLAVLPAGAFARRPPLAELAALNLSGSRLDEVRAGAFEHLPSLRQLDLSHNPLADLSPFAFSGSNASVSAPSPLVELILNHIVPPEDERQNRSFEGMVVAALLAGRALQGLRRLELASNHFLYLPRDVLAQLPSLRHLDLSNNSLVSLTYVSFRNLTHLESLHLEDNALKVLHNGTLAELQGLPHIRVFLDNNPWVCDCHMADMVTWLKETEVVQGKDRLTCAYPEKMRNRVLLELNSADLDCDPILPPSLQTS
# Protocol: ELISA, coated human TPBG-hFc
In this section we review reported EC50 values for a set of binders.
# number only, unit nM dropped from output

Field: example entries. Status: answers known.
Humanized antibody 28D4-12 (antibody, V domains shown, also called h28D4-12) VH: EVQLVESGGGLVKPGGSLRLSCAASGFTFSNYVMSWARQAPGKRLEWVAEISTGGSHTYYSDTVTGRFTISRDNAKKSLYLQMNSLRAEDTAVYYCIMFYYGSSYSMDYWGQGTTVTVSS VL: DIQMTQSPSSLSASVGDRVTITCRASQDIRNYLNWYQQKPGKTVKLLIYHTSRLHSGVPSRFSGSGSGTDYTFTISSLQPEDIATYFCQQGDTLPLTFGQGTRLEIK : 0.167
Humanized antibody 12B12-14 (antibody, V domains shown, also called h12B12-14) VH: EVQLVESGGGLVQPGGSLRLSCAASGFTFSNFGMHWVRQAPGKGLEWVAYISSGSTSFYYADTVKGRFTISRDNAKNSLYLQMNSLRDEDTAVYYCSRTNSLLRGFFDAWGQGTTVTVSS VL: DIVLTQTPLSLSVTPGQPASISCRASQSVSSSSYTYLHWYLQKPGQPPQLLIKSASNLESGVPDRFSGSGSGTDFTLKISRVEAEDVGVYYCQHSWEIPLTFGQGTKLEIK : 0.257

Consider the additional binder presented here.
Task: Indicate the recorded EC50 value for this binder: Humanized antibody 28D4-3 (antibody, V domains shown, also called h28D4-3) VH: EVQLVESGGGLVKPGGSLRLSCAASGFTFSNYVMSWIRQAPGKGLEWVAEISTGGSHTYYSDTVTGRFTISRDNAKKSLYLQMNSLRAEDTAVYYCIMFYYGSSYSMDYWGQGTTVTVSS VL: DIQMTQSPSSLSASVGDRVTITCRASQDIRNYLNWYQQKPGKAPKLLIYHTSRLHSGVPSRFSGSGSGTDFTFTISSLQPEDIATYYCQQGDTLPLTFGQGTRLEIK
Result: 0.16
